Hello, the source for this data is ChEMBL document CHEMBL1759915, in case you need it.

- Test system: MCF7
- experimentDescription: Effect on SOD level in human MCF7 cells assessed per mg protein at 2 ug/ml after 24 hrs (reference value: 27.61+/- 3.72 U/mg of protein)
- Assay type: functional
measurementKind: Activity (U/mg protein)
Numbers only; they are read as U/mg protein.

// Activity value for "CCSc1ncnc2c1cnn2-c1nc(C)nc2sc3c(c12)-c1ccccc1CC3" : 125

Reported Activity ( "COCCSc1ncnc2c1cnn2-c1nc(C)nc2sc3c(c12)-c1ccccc1CC3" ) = 105

# Activity of "Cc1nc(-n2ncc3c(=S)[nH]cnc32)c2c3c(sc2n1)CCc1ccccc1-3" = 77.9

Reported Activity ( "Cc1nc(-n2ncc3c(Cl)ncnc32)c2c3c(sc2n1)CCc1ccccc1-3" ) = 80.2

For reference, reported Activity for "Cc1nc(-n2ncc3c(S[C@@H]4O[C@H](CO)[C@@H](O)[C@H]4O)ncnc32)c2c3c(sc2n1)CCc1ccccc1-3" stands at 70.4

Kindly note the recorded Activity for "CCOCCSc1ncnc2c1cnn2-c1nc(C)nc2sc3c(c12)-c1ccccc1CC3" , which is 85.7

// "Cc1nc(-n2ncc3c(=O)[nH]cnc32)c2c3c(sc2n1)CCc1ccccc1-3" : Activity value = 95.6
